method description: Tmax in Fischer rat at 10 mg/kg, po
Type: ADME, organism-based
Set-up: dose 10 mg/kg, route oral
condition notes: in vivo
experimental endpoint: Tmax (h)
Answer in h, number only, no unit symbol.

Task: Report Tmax for Cl.O=C(O)c1ccc(C[C@H]2CC[C@H]3CN[C@H](C(=O)O)C[C@H]3C2)cc1 please.
Output: 1

---

method description: Tmax in Fischer rat at 30 mg/kg, po
Format: ADME, organism-based
Set-up: dose 30 mg/kg, route oral
condition notes: in vivo
experimental endpoint: Tmax (min)
Answer in min, number only, no unit symbol.

[[record]]
substance_smiles = "CCOC(=O)c1ccccc1O[C@H]1CC[C@H]2CN[C@H](C(=O)OCC)C[C@H]2C1.Cl"
unit_string = "min"
measured = 30

[[record]]
substance_smiles = "CCOC(=O)c1ccc(Cl)cc1O[C@H]1CC[C@H]2CN[C@H](C(=O)OCC)C[C@H]2C1.Cl"
unit_string = "min"
measured = 30

[[record]]
substance_smiles = "CCOC(=O)c1ccccc1S[C@H]1CC[C@H]2CN[C@H](C(=O)OCC)C[C@H]2C1.Cl"
unit_string = "min"
measured = 30


Below: the item to evaluate.
Task: Report Tmax for CCOC(=O)c1ccc(-c2ccccc2)cc1O[C@H]1CC[C@H]2CN[C@H](C(=O)OCC)C[C@H]2C1.Cl please.
Output: 60
